method notes: RP, Waters ACQUITY UPLC HSS T3, 100 × 2.1 mm, 1.8 µm, 30 °C, 0.4 mL/min, estimated dead time 0.55 min; A: water + 0.1% formic acid, pH 3; B: acetonitrile + 0.1% formic acid, pH 3; gradient (min/%B) 0/0 2/0 15/100 22/100 22.1/0 26/0
particulars: stereoisomer not certain
result type: LC retention time (min)

Consider the worked cases shown below.
query: If you can, please state the reported LC retention time value of COc1ccc(C(=O)O)cc1OC [Veratric acid] .
result: 9.65

query: If you can, please state the reported LC retention time value of O=c1ccc2ccc(O)cc2o1 [Umbelliferone] .
result: 9.65

a = CC1CCC2(C(=O)O)CCC3(C)C(=CCC4C5(C)CCC(O)C(C)(C)C5CCC43C)C2C1C (stereo unspecified) [Ursolic acid]
b = COc1cc(CCC(=O)O)ccc1O [Hydroferulic acid]
query: Lab log: flag the item ( a or b ) with the smaller LC retention time figure. Label of pick, please.
result: b
